Biological target: eTau1a (amino acids 2-166 of fetal tau) (Homo sapiens (Human), UniProt P10636 2-541)
Sequence (P10636 other isoform, or with tags, fused parts or gaps): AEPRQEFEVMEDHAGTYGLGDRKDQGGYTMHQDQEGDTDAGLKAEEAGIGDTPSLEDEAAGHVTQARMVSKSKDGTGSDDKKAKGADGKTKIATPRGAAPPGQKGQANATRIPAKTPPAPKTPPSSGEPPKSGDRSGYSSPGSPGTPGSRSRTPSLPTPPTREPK
Assay: relative binding affinity, method not named (Table 4)

binder	Kd
humanized IPN002 variant VH2/Vk3 (antibody, V domains shown) VH: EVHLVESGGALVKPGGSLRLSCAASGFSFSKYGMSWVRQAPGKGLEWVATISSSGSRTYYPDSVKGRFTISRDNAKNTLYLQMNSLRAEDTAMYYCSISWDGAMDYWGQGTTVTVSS VL: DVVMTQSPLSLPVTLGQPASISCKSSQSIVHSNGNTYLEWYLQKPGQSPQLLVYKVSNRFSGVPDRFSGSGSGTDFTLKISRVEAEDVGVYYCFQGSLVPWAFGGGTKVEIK	0.327 nM
VH3/Vk4 (antibody, V domains shown, member of the group m7; also called humanized IPN002 variant VH3/Vk4) VH: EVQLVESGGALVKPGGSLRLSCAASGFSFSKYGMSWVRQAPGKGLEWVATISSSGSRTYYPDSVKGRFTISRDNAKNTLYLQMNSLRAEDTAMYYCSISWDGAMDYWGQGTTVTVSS VL: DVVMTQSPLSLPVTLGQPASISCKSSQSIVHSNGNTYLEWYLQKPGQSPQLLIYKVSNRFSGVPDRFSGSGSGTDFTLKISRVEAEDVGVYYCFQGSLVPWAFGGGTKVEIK	0.216 nM
